SYSTEM_NAME: Human ATX protein (Homo sapiens)
Construct: made in house
TEST_PROTOCOL: ATX biochemical FRET assay with FS-3 substrate
TEST_PARAMETERS: IC50, FRET substrate FS-3 2 μM, ATX 1.0 μg/mL, 30 minutes pre-incubation, 2 hours at room temperature
pIC50: −log10 of the molar value.
Listed below: pIC50 values for each entry.

Tell me measured pIC50 for C[C@H]1CC[C@@H](Oc2ccc3ccc(CN4C5CCC4CC(C(=O)O)C5)cc3c2C(F)(F)F)CC1 (stereo partly shown) [Example 3] please.
≥ 7.00

Tell me measured pIC50 for CC(c1ccc2ccc(O[C@H]3CC[C@@H](C(F)(F)F)CC3)c(C#N)c2c1)N1C2CCCC1CC(C(=O)O)C2 (stereo partly shown) [Example 38] please.
≥ 7.00

Tell me measured pIC50 for CC(c1ccc2ccc(O[C@H]3CC[C@@H](C)CC3)c(Cl)c2c1)N1C2CCC1CC(C(=O)O)C2 (stereo partly shown) [Example 90] please.
≥ 6.60

---
Tell me measured pIC50 for C[C@H]1CC[C@@H](Oc2ccc3ccc(CN4C5CCCC4CC(C(=O)O)C5)cc3c2C(F)F)CC1 (stereo partly shown) [Example 86] please.
≥ 7.00

Tell me measured pIC50 for C[C@H]1CC[C@@H](Oc2ccc3ccc(CN4C5CCCC4CC(C(=O)O)C5)cc3c2Cl)CC1 (stereo partly shown) [Example 15] please.
≥ 7.00

Tell me measured pIC50 for C[C@@H](c1ccc2ccc(O[C@H]3CC[C@@H](C(F)(F)F)CC3)c(C(F)(F)F)c2c1)N1C2CCCC1CC(C(=O)O)C2 (stereo partly shown) [Example 137a] please.
≥ 7.00

Tell me measured pIC50 for CC[C@H]1CC[C@@H](Oc2ccc3ccc(CN4C5CCC4CC(C(=O)O)C5)cc3c2C#N)CC1 (stereo partly shown) [Example 70] please.
≥ 7.00

Tell me measured pIC50 for CCC(c1ccc2ccc(O[C@H]3CC[C@@H](C)CC3)c(Cl)c2c1)N1C2CCC1CC(C(=O)O)C2 (stereo partly shown) [Example 95] please.
≥ 6.30

Tell me measured pIC50 for O=C(O)C1CC2CCC(C1)N2C(=O)c1ccc2ccc(O[C@H]3CC[C@@H](C(F)(F)F)CC3)c(C(F)(F)F)c2c1 (relative stereo) [Example 23] please.
≥ 6.60

---

SYSTEM_NAME: Human ATX protein (Homo sapiens, UniProt Q13822)
Construct: made in house
TEST_PROTOCOL: ATX biochemical FRET assay with FS-3 substrate
TEST_PARAMETERS: IC50, FRET substrate FS-3 2 μM, ATX 1.0 μg/mL, 30 minutes pre-incubation, 2 hours at room temperature
From the text: ATX (Autotaxin) is a 125 KDa glycoprotein with lysophospholipase D (LPLD) activity that generates the bioactive lipid lysophosphatidic acid (LPA) from lysophosphatidylcholine (LPC). The ATX biochemical assay utilizes a FRET (fluorescence resonance energy transfer) technology platform. […] The reaction is monitored by a SpectraMax M5 (Molecular Devices, Sunnyvale, Calif.) with at excitation wavelength 485 nm and emission wavelength […]. […]
Listed below: IC50 values for each entry.

The following compounds have reported results that may help.
Tell me measured IC50 for CC(c1ccc2ccc(O[C@H]3CC[C@@H](C)CC3)c(C(F)(F)F)c2c1)N1C2CCCC1CC(C(=O)O)C2 (some centres unmarked) please.
≤ 100 nM

Tell me measured IC50 for CC(c1ccc2ccc(O[C@H]3CC[C@@H](C(F)(F)F)CC3)c(Cl)c2c1)N1C2CCCC1CC(C(=O)O)C2 (some centres unmarked) please.
≤ 250 nM

Tell me measured IC50 for C[C@H]1CC[C@@H](Oc2ccc3ccc(C(=O)N4C5CCC4CC(C(=O)O)C5)cc3c2C(F)(F)F)CC1 (relative stereo) please.
≤ 250 nM

---
Tell me measured IC50 for CC[C@H]1CC[C@@H](Oc2ccc3ccc(CN4C5CCCC4CC(C(=O)O)C5)cc3c2C(F)(F)F)CC1 (some centres unmarked) please.
≤ 100 nM

Tell me measured IC50 for CCC(c1ccc2ccc(O[C@H]3CC[C@@H](C)CC3)c(C(F)(F)F)c2c1)N1C2CCCC1CC(C(=O)O)C2 (some centres unmarked) please.
≤ 250 nM

Tell me measured IC50 for CC[C@H]1CC[C@@H](Oc2ccc3ccc(C(C)N4C5CCCC4CC(C(=O)O)C5)cc3c2C#N)CC1 (some centres unmarked) please.
≤ 100 nM

Tell me measured IC50 for CC(c1ccc2ccc(O[C@H]3CC[C@@H](C(F)(F)F)CC3)c(C(F)(F)F)c2c1)N1C2CCC1CC(C(=O)O)C2 (some centres unmarked) please.
≤ 100 nM

Tell me measured IC50 for CC[C@H]1CC[C@@H](Oc2ccc3ccc([C@@H](C)N4C5CCC4CC(C(=O)O)C5)cc3c2C(F)(F)F)CC1 (some centres unmarked) [Example 144b] please.
≤ 100 nM
